B1: Dystrobrevin alpha, residues 235 to 294; numbered along this chain, Q9Y4J8 (parent)
chain: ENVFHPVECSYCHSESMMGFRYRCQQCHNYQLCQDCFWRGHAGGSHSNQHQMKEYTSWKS

variants of: B1; test: abundance fitness (aPCA) (normalised: wild type 0, dead -1); higher = more abundant; growth selection in yeast, the domain comes from the species named; details: Homo sapiens
readoutName: abundance fitness
Numbers only.

Sample answers from the record:
[[record]]
monomersequence = "ENVFHPVECSACHSESMMGFRYRCQQCHNYQLCQDCFWRGHAGGSHSNQHQMKEYTSWKS"
readoutname = "abundance fitness"
numericreadout = -0.208

[[record]]
monomersequence = "ENVFHPVECSYCHSESMMGFRYRCQQCHNYQLCQDCFWRGHAGGSHSNQHQMKEYTKWKS"
readoutname = "abundance fitness"
numericreadout = -0.019

[[record]]
monomersequence = "ENVFHPVECSYCHSESMMGFRYRCQQCHNYQLCQDCFWRGHAGGSHSNQHQMKEYTNWKS"
readoutname = "abundance fitness"
numericreadout = -0.291

[[record]]
monomersequence = "ENVFHPVECSYCHSESMMGFRYRCQQPHNYQLCQDCFWRGHAGGSHSNQHQMKEYTSWKS"
readoutname = "abundance fitness"
numericreadout = -0.578


Take each entry in turn and give its abundance fitness.
1. ENVFHPVECSYCHSESMMGFRYRCQQCHNYQLCQDCFWRGHAGGSHSNVHQMKEYTSWKS
2. ENVFHPVECSYCHSESMMGFRYRCGQCHNYQLCQDCFWRGHAGGSHSNQHQMKEYTSWKS

[out]
1. -0.034
2. -0.202

Take each entry in turn and give its abundance fitness.
1. ENVFHPVECSYCHSESMMGFRYRCQQCHNYQLCQDCFWRGHAMGSHSNQHQMKEYTSWKS
2. ENVFHPVECSYCHSESMMGFRYRCQQCHNYNLCQDCFWRGHAGGSHSNQHQMKEYTSWKS

[out]
[-0.068, -0.202]

Take each entry in turn and give its abundance fitness.
1. ENVFHPVECSYCHSESMMGFRYRCQQCHNYQLCQDCFWRGHAGGSQSNQHQMKEYTSWKS
2. ENVFHPVECSYCHSESMMGFRYRCQQCHNYQLCQDCFWRGHAGGSHQNQHQMKEYTSWKS
3. ENVFHPVECSYCHSESMMGFRYRCQKCHNYQLCQDCFWRGHAGGSHSNQHQMKEYTSWKS
4. ENVFHPVECSYCHSESMMGFRYRCQQCHNYQLCQDCFWRGHAGGSHSNQHQMKEYTSWYS
5. ECVFHPVECSYCHSESMMGFRYRCQQCHNYQLCQDCFWRGHAGGSHSNQHQMKEYTSWKS
6. ENVFHPVECSTCHSESMMGFRYRCQQCHNYQLCQDCFWRGHAGGSHSNQHQMKEYTSWKS
7. ENVFHPVECSYCHSESMMGFRYRCQQCHNYQLCQDCFWRGHAGGSHSNQHQMKEYTRWKS
8. ENVFHPVENSYCHSESMMGFRYRCQQCHNYQLCQDCFWRGHAGGSHSNQHQMKEYTSWKS

[out]
-0.331
-0.031
-0.288
-0.099
-0.33
-0.201
-0.152
-1.06

Take each entry in turn and give its abundance fitness.
1. ENVFHPVECSYCHSESMMGFRYRCQCCHNYQLCQDCFWRGHAGGSHSNQHQMKEYTSWKS
2. ENVFHPVEDSYCHSESMMGFRYRCQQCHNYQLCQDCFWRGHAGGSHSNQHQMKEYTSWKS
3. ENVFHPVECSYCHSESMMGFRYRCQQCHNYQLCQDCFWRGHAGGSHSNGHQMKEYTSWKS
4. ENVFHPVECSYKHSESMMGFRYRCQQCHNYQLCQDCFWRGHAGGSHSNQHQMKEYTSWKS

[out]
-0.301
-0.904
0.103
-0.943

Take each entry in turn and give its abundance fitness.
1. ENVFHPVECSYCHSESMMGFRYRCQQCHNYQLCQDCFWRGHAGGWHSNQHQMKEYTSWKS
2. ENVFHPVECSYCHSESMMGFRYRCQQCHLYQLCQDCFWRGHAGGSHSNQHQMKEYTSWKS

[out]
[-0.287, -0.125]
